Test Description: Metabolic stability in rat liver microsomes at 5 uM after 15 mins
Type: ADME, Microsome
Please enter met where metabolized at 0.25 h, 5 µM is greater than or equal to 90%, and not met where it is lower.

* COc1ccc2c(O[C@@H]3C[C@H]4C(=O)N[C@]5(C(=O)NS(=O)(=O)C6CC6)C[C@H]5/C=C\CCCCCNC(=O)N4C3)cc(-c3nc(C(C)C)cs3)nc2c1Cl | not met
* COc1ccc2c(O[C@@H]3C[C@H]4C(=O)N[C@]5(C(=O)NS(=O)(=O)C6CC6)C[C@H]5/C=C\CCCCCNC(=O)N4C3)cc(-c3nc(C(C)C)cs3)nc2c1C | not met
* COc1ccc2c(O[C@@H]3C[C@H]4C(=O)N[C@]5(C(=O)NS(=O)(=O)C6(C)CC6)C[C@H]5/C=C\CCCCCNC(=O)N4C3)cc(-c3nc(C(C)C)cs3)nc2c1Cl | not met

Then there is this compound:
IN: Exam item: decide whether the reported metabolized at 0.25 h, 5 µM for "COc1ccc2c(O[C@@H]3C[C@H]4C(=O)N[C@]5(C(=O)NS(=O)(=O)C6CC6)C[C@H]5/C=C\CCCCCNC(=O)N4C3)cc(-c3nc(C(C)C)cs3)nc2c1" is at least 90%.
OUT: met

----------
System: Hepatitis C virus
Test Description: Antiviral activity against HCV infected in human Huh7 cells after 48 hrs by luciferase based replicon assay
Assay type: functional, organism-based, Hepacivirus hominis
Experimental Parameters: Huh-7, 48 h
Classify: 1 (yes) when EC50 is strictly less than 0.01 µM; 0 (no) when EC50 is not.

• COc1ccc2c(O[C@@H]3C[C@H]4C(=O)N[C@]5(C(=O)NS(=O)(=O)C6CC6)C[C@H]5/C=C\CCCCCNC(=O)N4C3)cc(-c3ccccc3)nc2c1 = 0 (no)
• COc1ccc2c(O[C@@H]3C[C@H]4C(=O)N[C@]5(C(=O)NS(=O)(=O)C6CC6)C[C@H]5/C=C\CCCCCNC(=O)N4C3)cc(-c3cscn3)nc2c1 = 0 (no)
• COc1ccc2c(O[C@@H]3C[C@H]4C(=O)N[C@]5(C(=O)NS(=O)(=O)C6CC6)C[C@H]5/C=C\CCCCN(C)C(=O)N4C3)cc(-c3ccccc3)nc2c1 = 0 (no)
• COc1ccc2c(O[C@@H]3C[C@H]4C(=O)N[C@]5(C(=O)NS(=O)(=O)C6CC6)C[C@H]5/C=C\CCCCCNC(=O)N4C3)cc(-c3nc(C(C)C)cs3)nc2c1C = 1 (yes)

IN: hey, is EC50 for "COc1ccc2c(O[C@@H]3C[C@H]4C(=O)N[C@]5(C(=O)O)C[C@H]5/C=C\CCCCC[C@H](NC(=O)OC(C)(C)C)C(=O)N4C3)cc(-c3ccccc3)nc2c1" lower than 0.01 µM or not?
OUT: 0 (no)

IN: hey, is EC50 for "COc1ccc2c(O[C@@H]3C[C@H]4C(=O)N[C@]5(C(=O)NS(=O)(=O)C6CC6)C[C@H]5/C=C\CCCCCNC(=O)N4C3)cc(-c3nc(C(C)C)cs3)nc2c1Cl" lower than 0.01 µM or not?
OUT: 1 (yes)

IN: hey, is EC50 for "COc1ccc2c(O[C@@H]3C[C@H]4C(=O)N[C@]5(C(=O)O)C[C@H]5/C=C\CCCCCN(NC(=O)OC(C)(C)C)C(=O)N4C3)cc(-c3ccccc3)nc2c1" lower than 0.01 µM or not?
OUT: 0 (no)

IN: hey, is EC50 for "COc1ccc2c(O[C@@H]3C[C@H]4C(=O)N[C@]5(C(=O)NS(=O)(=O)C6(C)CC6)C[C@H]5/C=C\CCCCCNC(=O)N4C3)cc(-c3nc(C(C)C)cs3)nc2c1Cl" lower than 0.01 µM or not?
OUT: 1 (yes)

IN: hey, is EC50 for "COc1ccc2c(O[C@@H]3C[C@H]4C(=O)N[C@]5(C(=O)NS(=O)(=O)C6CC6)C[C@H]5/C=C\CCCCCNC(=O)N4C3)cc(-c3nccs3)nc2c1" lower than 0.01 µM or not?
OUT: 0 (no)

IN: hey, is EC50 for "COc1ccc2c(O[C@@H]3C[C@H]4C(=O)N[C@]5(C(=O)NS(=O)(=O)C6CC6)C[C@H]5/C=C\CCCCCOC(=O)N4C3)cc(-c3ccccc3)nc2c1" lower than 0.01 µM or not?
OUT: 0 (no)

IN: hey, is EC50 for "COc1ccc2c(O[C@@H]3C[C@H]4C(=O)N[C@]5(C(=O)NS(=O)(=O)C6(C)CC6)C[C@H]5/C=C\CCCCCNC(=O)N4C3)cc(-c3nc(C(C)C)cs3)nc2c1C" lower than 0.01 µM or not?
OUT: 1 (yes)

----------
Test Description: Apparent permeability across apical to basolateral side in human Caco-2 cells
Assay type: ADME, cell-based
Readout: Papp A→B (×10⁻⁶ cm/s)
Give the quantity in ×10⁻⁶ cm/s, number only.

IN: Given the compound "COc1ccc2c(O[C@@H]3C[C@H]4C(=O)N[C@]5(C(=O)NS(=O)(=O)C6CC6)C[C@H]5/C=C\CCCCCNC(=O)N4C3)cc(-c3nccs3)nc2c1" , write its reported Papp A→B.
OUT: 0.4

IN: Given the compound "COc1ccc2c(O[C@@H]3C[C@H]4C(=O)N[C@]5(C(=O)NS(=O)(=O)C6(C)CC6)C[C@H]5/C=C\CCCCCNC(=O)N4C3)cc(-c3nc(C(C)C)cs3)nc2c1" , write its reported Papp A→B.
OUT: 30

IN: Given the compound "COc1ccc2c(O[C@@H]3C[C@H]4C(=O)N[C@]5(C(=O)NS(=O)(=O)C6CC6)C[C@H]5/C=C\CCCCCNC(=O)N4C3)cc(-c3nc(C(C)C)cs3)nc2c1" , write its reported Papp A→B.
OUT: 10

----------
Test Description: Clearance in Sprague-Dawley rat at 2 mg/kg, iv
Type: ADME, organism-based
Parameters: dose 2 mg/kg, route intravenous
Experimental Parameters: in vivo
# reported clearance; entries follow
Give the quantity in L/h/kg, number only.

Before answering, review these 3 worked examples.
* COc1ccc2c(O[C@@H]3C[C@H]4C(=O)N[C@]5(C(=O)NS(=O)(=O)C6CC6)C[C@H]5/C=C\CCCCCNC(=O)N4C3)cc(-c3nc(C(C)C)cs3)nc2c1 | 0.55
* COc1ccc2c(O[C@@H]3C[C@H]4C(=O)N[C@]5(C(=O)NS(=O)(=O)C6CC6)C[C@H]5/C=C\CCCCN(C)C(=O)N4C3)cc(-c3nc(C(C)C)cs3)nc2c1 | 1.65
* COc1ccc2c(O[C@@H]3C[C@H]4C(=O)N[C@]5(C(=O)NS(=O)(=O)C6(C)CC6)C[C@H]5/C=C\CCCCCNC(=O)N4C3)cc(-c3nc(C(C)C)cs3)nc2c1 | 0.59

Moving on to the next molecule.
IN: Given the molecule "COc1ccc2c(O[C@@H]3C[C@H]4C(=O)N[C@]5(C(=O)NS(=O)(=O)C6CC6)C[C@H]5/C=C\CCCCNC(=O)N4C3)cc(-c3nc(C(C)C)cs3)nc2c1" , write its reported clearance.
OUT: 0.94

----------
Test Description: Cytotoxicity against human HuH7 cells
Type: cell-based, Huh-7
Experimental Parameters: Huh-7 cells
Readout: CC50

IN: Given the compound "COc1ccc2c(O[C@@H]3C[C@H]4C(=O)N[C@]5(C(=O)NS(=O)(=O)C6(C)CC6)C[C@H]5/C=C\CCCCCNC(=O)N4C3)cc(-c3nc(C(C)C)cs3)nc2c1" , write its reported CC50.
OUT: > 50 µM

----------
Test Description: Ratio of drug level in liver to plasma of Sprague-Dawley rat at 10 mg/kg, po after 6 hrs
Readout: liver/plasma ratio at 6 h
Number only, no unit.

• COc1ccc2c(O[C@@H]3C[C@H]4C(=O)N[C@]5(C(=O)NS(=O)(=O)C6(C)CC6)C[C@H]5/C=C\CCCCCNC(=O)N4C3)cc(-c3nc(C(C)C)cs3)nc2c1 = 105
• COc1ccc2c(O[C@@H]3C[C@H]4C(=O)N[C@]5(C(=O)NS(=O)(=O)C6CC6)C[C@H]5/C=C\CCCCNC(=O)N4C3)cc(-c3nc(C(C)C)cs3)nc2c1 = 9.5

Moving on to the next molecule.
IN: Given the molecule "COc1ccc2c(O[C@@H]3C[C@H]4C(=O)N[C@]5(C(=O)NS(=O)(=O)C6CC6)C[C@H]5/C=C\CCCCCNC(=O)N4C3)cc(-c3nc(C(C)C)cs3)nc2c1" , write its reported liver/plasma ratio at 6 h.
OUT: 29

----------
# reported AUC; entries follow
Test Description: AUC in Sprague-Dawley rat at 2 mg/kg, iv
Format: ADME, organism-based
Set-up: dose 2 mg/kg, route intravenous
Experimental Parameters: plasma
Give the quantity in µM·h, number only.

Before answering, review these 2 worked examples.
• COc1ccc2c(O[C@@H]3C[C@H]4C(=O)N[C@]5(C(=O)NS(=O)(=O)C6CC6)C[C@H]5/C=C\CCCCCNC(=O)N4C3)cc(-c3nc(C(C)C)cs3)nc2c1 = 7.09
• COc1ccc2c(O[C@@H]3C[C@H]4C(=O)N[C@]5(C(=O)NS(=O)(=O)C6CC6)C[C@H]5/C=C\CCCCNC(=O)N4C3)cc(-c3nc(C(C)C)cs3)nc2c1 = 3

Moving on to the next molecule.
IN: Given the molecule "COc1ccc2c(O[C@@H]3C[C@H]4C(=O)N[C@]5(C(=O)NS(=O)(=O)C6CC6)C[C@H]5/C=C\CCCCN(C)C(=O)N4C3)cc(-c3nc(C(C)C)cs3)nc2c1" , write its reported AUC.
OUT: 1.65
